Data provenance: patent US7598392B2

- experimentalTarget: human CCR2b receptor (Homo sapiens, UniProt P41597)
- Sequence (P41597 1-360 isoform P41597-2): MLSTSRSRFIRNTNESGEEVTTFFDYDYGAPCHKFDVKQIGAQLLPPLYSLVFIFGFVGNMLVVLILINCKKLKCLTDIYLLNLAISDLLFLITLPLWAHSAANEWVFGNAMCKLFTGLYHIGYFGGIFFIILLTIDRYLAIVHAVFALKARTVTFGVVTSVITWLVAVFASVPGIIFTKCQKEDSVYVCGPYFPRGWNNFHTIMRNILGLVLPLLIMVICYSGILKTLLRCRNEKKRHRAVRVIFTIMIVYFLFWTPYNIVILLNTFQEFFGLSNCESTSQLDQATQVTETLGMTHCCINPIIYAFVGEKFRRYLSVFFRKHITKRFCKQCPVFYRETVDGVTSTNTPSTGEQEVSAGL
- protocolDescription: Inhibitory activity on cells expressing the human CCR2b receptor
Would you mind telling me the reported IC50 of each entry?
One number for each entry, in nM.

| compound | measurementKind | unitsOfMeasure | quantitativeReadout |
| --- | --- | --- | --- |
| COc1ccc(C2CCCCC2)cc1-c1csc(NC(=O)C2CCCN(C(=O)c3ccncn3)C2)n1 (stereo not shown) | IC50 | nM | 5 |
| COc1ccc(C2CCCCC2)cc1-c1csc(NC(=O)C2CCCN(C(=O)c3cccc(C#N)c3)C2)n1 (stereo not shown) | IC50 | nM | 25 |

Each compound below has a reported value. Please supply its IC50.
1. COc1ccc(C2CCCCC2)cc1-c1csc(NC(=O)C2CCCN(C(=O)c3ccoc3C)C2)n1 (stereo not shown)
2. CCCOc1ccc(OC)c(-c2csc(NC(=O)C3CCCN(C(=O)c4cc([N+](=O)[O-])cc([N+](=O)[O-])c4)C3)n2)c1 (stereo not shown)

1. 44
2. 290
